Data provenance: patent US20260242735A1

Record form. Attribute: Mean % WT Binding. Fill in for each entry.
Experimental system: human CD33 R110A (human, UniProt P20138 18-364)
Sequence (P20138 18-364 R110A limits assumed): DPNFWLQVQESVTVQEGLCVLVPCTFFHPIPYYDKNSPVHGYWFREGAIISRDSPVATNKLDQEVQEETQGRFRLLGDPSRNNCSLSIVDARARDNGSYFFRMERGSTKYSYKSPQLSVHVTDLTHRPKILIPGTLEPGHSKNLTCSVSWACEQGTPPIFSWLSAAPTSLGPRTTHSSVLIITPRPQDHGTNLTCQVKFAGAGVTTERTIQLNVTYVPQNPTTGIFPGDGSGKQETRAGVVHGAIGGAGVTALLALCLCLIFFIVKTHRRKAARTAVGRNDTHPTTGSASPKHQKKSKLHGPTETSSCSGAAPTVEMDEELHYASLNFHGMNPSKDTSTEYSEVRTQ
Experiment: flow cytometry on HEK293-T, alanine scan
One number for each entry, in % WT binding.

Field: example entries. Status: answers known.
{"columns": ["Binder", "Mean % WT Binding (% WT binding)"],
 "data": [
  ["Refmab #1 (antibody, V domains shown, The alanine scan used IgG or Fab; also called hP67.6) VH: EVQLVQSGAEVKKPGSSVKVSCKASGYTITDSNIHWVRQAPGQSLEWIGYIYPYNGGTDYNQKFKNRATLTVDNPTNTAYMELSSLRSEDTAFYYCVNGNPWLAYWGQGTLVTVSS VL: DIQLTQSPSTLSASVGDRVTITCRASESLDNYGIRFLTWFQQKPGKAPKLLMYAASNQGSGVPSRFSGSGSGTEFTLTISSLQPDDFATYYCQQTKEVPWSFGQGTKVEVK", 94.9],
  ["Refmab #3 (antibody, V domains shown, The alanine scan used IgG or Fab) VH: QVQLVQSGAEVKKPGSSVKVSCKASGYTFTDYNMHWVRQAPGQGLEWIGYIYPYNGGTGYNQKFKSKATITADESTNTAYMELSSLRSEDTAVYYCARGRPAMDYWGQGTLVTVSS VL: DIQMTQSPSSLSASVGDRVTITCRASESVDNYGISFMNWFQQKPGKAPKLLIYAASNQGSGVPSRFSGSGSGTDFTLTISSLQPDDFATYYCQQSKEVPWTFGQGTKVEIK", 99.1],
  ["Refmab #4 (antibody, V domains shown, The alanine scan used IgG or Fab) VH: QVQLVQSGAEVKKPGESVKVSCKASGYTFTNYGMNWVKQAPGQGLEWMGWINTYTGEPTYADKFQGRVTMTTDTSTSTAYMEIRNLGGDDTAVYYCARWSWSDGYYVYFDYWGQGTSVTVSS VL: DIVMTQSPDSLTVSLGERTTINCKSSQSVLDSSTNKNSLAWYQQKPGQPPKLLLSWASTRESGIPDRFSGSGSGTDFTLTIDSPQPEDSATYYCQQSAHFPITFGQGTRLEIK", 88.4]
]}

Here is another binder to look at.
Entry Refmab #2 (antibody, V domains shown, The alanine scan used IgG or Fab) VH: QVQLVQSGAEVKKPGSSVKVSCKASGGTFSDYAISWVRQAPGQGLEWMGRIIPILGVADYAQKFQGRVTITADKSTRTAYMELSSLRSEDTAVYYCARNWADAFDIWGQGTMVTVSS VL: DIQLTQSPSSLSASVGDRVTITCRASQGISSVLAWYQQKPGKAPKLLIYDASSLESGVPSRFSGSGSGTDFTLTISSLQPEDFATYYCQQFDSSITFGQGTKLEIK , Mean % WT Binding reported as 109
